All values here come from patent US20120329784A1.

Target: Full length human TNNI3K (hTNNI3K) (Homo sapiens, UniProt Q59H18)
Construct: His-MBP-TEV-Full length human TNNI3K (hTNNI3K); His (N); MBP (N); TEV cleavage site (N); made in house; host or cells: baculovirus expression system (printed 'Baculokinase system')
Sequence (Q59H18 whole entry): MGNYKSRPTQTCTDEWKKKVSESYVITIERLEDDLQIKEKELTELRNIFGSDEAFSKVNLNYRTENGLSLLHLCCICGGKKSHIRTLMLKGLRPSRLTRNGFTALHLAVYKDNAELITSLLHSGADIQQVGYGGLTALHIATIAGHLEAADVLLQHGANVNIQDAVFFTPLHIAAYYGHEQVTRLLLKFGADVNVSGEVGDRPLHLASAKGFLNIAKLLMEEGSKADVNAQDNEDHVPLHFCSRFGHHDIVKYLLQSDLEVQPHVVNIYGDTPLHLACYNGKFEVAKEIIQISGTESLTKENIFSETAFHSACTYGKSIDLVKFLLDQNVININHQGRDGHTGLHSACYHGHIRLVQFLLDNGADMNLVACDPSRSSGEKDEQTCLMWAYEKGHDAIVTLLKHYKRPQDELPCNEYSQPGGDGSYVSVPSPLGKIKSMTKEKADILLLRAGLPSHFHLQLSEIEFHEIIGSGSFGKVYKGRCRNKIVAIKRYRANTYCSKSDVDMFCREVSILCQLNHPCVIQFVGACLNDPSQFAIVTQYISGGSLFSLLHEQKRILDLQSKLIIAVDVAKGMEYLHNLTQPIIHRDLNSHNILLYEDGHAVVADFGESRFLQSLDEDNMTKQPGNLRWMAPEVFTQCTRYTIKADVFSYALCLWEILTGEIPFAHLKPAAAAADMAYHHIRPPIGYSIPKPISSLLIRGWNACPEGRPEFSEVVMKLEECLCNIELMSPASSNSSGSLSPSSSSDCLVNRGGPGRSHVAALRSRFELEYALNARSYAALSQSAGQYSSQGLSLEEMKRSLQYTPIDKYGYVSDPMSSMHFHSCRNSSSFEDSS
Assay: Fluorescent polarization assay of compound inhibition on hTNNI3K ATP binding (Biological Assay Method I)
pIC50: −log10 of the molar value. Where a name gives a salt, the structure may show the parent alone.
endpointLabel: pIC50

[
  {
    "compound": "CNS(=O)(=O)c1cccc(Nc2cc(Nc3ccccc3)ncn2)c1 [Example 55, trifluoroacetate]",
    "assayResult": "~7.00"
  }
]
